Provenance of the data: patent US5506238A

- Test system: pressor reaction of angiotensin II
- assay-overview: Inhibition of pressor reaction of angiotensin II on anesthetized rat (Wistar Kyoto) having blocked ganglions
- Assay type: in vivo
- condition: iv, 0.05 h, ganglion-blocked Wistar Kyoto rat, i.v., 3 min after administration, read-out: Dose necessary for shifting about doubled shift of pressor reaction of angiotensin toward right (ED50)
- Experimental: (2) Inhibition of pressor reaction of angiotensin II on anesthetized rat (Wistar Kyoto) having blocked ganglions A 9 to 25 week-old Wistar Kyoto male rat (Charles River Japan) was anesthetized with 50 mg/kg pentobarbital sodium intraperitoneally, and the carotid and jugular were cannulated. […]
Note to self: use true only for ED50 readings below 0.04 mg/kg; a reading exactly at 0.04 mg/kg still gets false.

Some entries whose results are on file:
{"columns": ["molecule", "class-name"],
 "data": [
  ["Cc1ccnc2c1nc(C1CC1)n2Cc1ccc(-c2ccccc2C(=O)O)cc1 [compound 18]", "false"],
  ["CCOc1nc2c(C)cc(C)nc2n1Cc1ccc(-c2ccccc2-c2nnn[nH]2)cc1 [compound 31]", "true"]
]}

Turning to the following molecule.
Does the reported ED50 of the following molecule sit strictly below 0.04 mg/kg? CCCc1nc2c(C)ccnc2n1Cc1ccc(-c2cc(Cl)ccc2-c2nnn[nH]2)cc1 [compound 21]
false

###

List of ED50 values.
- Tested on: pressor reaction of angiotensin II
- assay-overview: Inhibition of pressor reaction of angiotensin II on anesthetized rat (Wistar Kyoto) having blocked ganglions
- Format: in vivo
- condition: iv, 0.05 h, ganglion-blocked Wistar Kyoto rat, i.v., 3 min after administration, read-out: Dose necessary for shifting about doubled shift of pressor reaction of angiotensin toward right (ED50)
Write the number in mg/kg without appending the unit.

The cases that follow already have their ED50 on record.
{"columns": ["compound-structure-string", "ED50 (mg/kg)"],
 "data": [
  ["CCCCc1nc2cccnc2n1Cc1ccc(-c2cc(OC)ccc2-c2nnn[nH]2)cc1", 0.71],
  ["Cc1ccnc2c1nc(C1CCC1)n2Cc1ccc(-c2ccccc2C(=O)O)cc1", 0.25],
  ["COc1nc2c(C)ccnc2n1Cc1ccc(-c2ccccc2-c2nnn[nH]2)cc1", 0.016]
]}

Specify reported ED50 for the compound shown: CCCc1ccnc2c1nc(CC)n2Cc1ccc(-c2ccccc2-c2nnn[nH]2)cc1
1.33

Specify reported ED50 for the compound shown: CCCc1nc2c(C)ccnc2n1Cc1ccc(-c2ccccc2C(=O)O)cc1
0.17

Specify reported ED50 for the compound shown: CC#Cc1nc2c(C)ccnc2n1Cc1ccc(-c2ccccc2-c2nnn[nH]2)cc1
0.04

Specify reported ED50 for the compound shown: Cc1ccnc2c1nc(C1CC1)n2Cc1ccc(-c2ccccc2-c2nnn[nH]2)cc1
0.022

Specify reported ED50 for the compound shown: CCc1nc2c(C)ccnc2n1Cc1ccc(-c2ccccc2-c2nnn[nH]2)cc1
0.019

Specify reported ED50 for the compound shown: CCSc1nc2c(C)ccnc2n1Cc1ccc(-c2ccccc2-c2nnn[nH]2)cc1
0.04

Specify reported ED50 for the compound shown: CCCCc1nc2ccccc2n1Cc1ccc(-c2ccccc2-c2nn[nH]n2)cc1
0.74

Specify reported ED50 for the compound shown: CCCc1nc2c(C)cc(C)nc2n1Cc1ccc(-c2ccccc2-c2nnn[nH]2)cc1
0.04

Specify reported ED50 for the compound shown: CCSc1nc2c(C)ccnc2n1Cc1ccc(-c2ccccc2C(=O)O)cc1
0.41

Specify reported ED50 for the compound shown: CCCOc1nc2c(C)ccnc2n1Cc1ccc(-c2ccccc2-c2nnn[nH]2)cc1
0.034

Specify reported ED50 for the compound shown: Cc1cc(C)c2nc(C3CC3)n(Cc3ccc(-c4ccccc4C(=O)O)cc3)c2n1
0.021

Specify reported ED50 for the compound shown: Cc1cc(C)c2nc(C3CC3)n(Cc3ccc(-c4ccccc4-c4nnn[nH]4)cc3)c2n1
0.015

Specify reported ED50 for the compound shown: CSc1nc2c(C)ccnc2n1Cc1ccc(-c2ccccc2-c2nnn[nH]2)cc1
0.13

###

List of ED50 values.
- System: pressor reaction of angiotensin II
- assay-overview: Inhibition of pressor reaction of angiotensin II on anesthetized rat (Wistar Kyoto) having blocked ganglions
- Assay type: in vivo
- condition: iv, 0.05 h, ganglion-blocked Wistar Kyoto rat, i.v., 3 min after administration, read-out: Dose necessary for shifting about doubled shift of pressor reaction of angiotensin toward right (ED50)
Answers without a unit are incomplete; give the number and then its unit.

Specify reported ED50 for the molecule shown: CCCc1nc2c(C)ccnc2n1Cc1ccc(-c2ccccc2-c2nn[nH]n2)cc1 [compound 5]
0.029 mg/kg

Specify reported ED50 for the molecule shown: CCCc1nc2cccnc2n1Cc1ccc(-c2cc(Cl)ccc2-c2nnn[nH]2)cc1 [compound 3]
0.44 mg/kg

Specify reported ED50 for the molecule shown: CCCc1nc2c(Cl)ccnc2n1Cc1ccc(-c2ccccc2C(=O)O)cc1 [compound 13]
0.66 mg/kg
